- assay.target: HLA B*1503 (Homo sapiens, UniProt P01889, A329T/A93T/A95T/C349S/D201E/D98Y/E187L/E204Q/K202T/N87E/Q94N/R155S/R180L/S121R/S35A/V306I/V36M/Y140S/Y91S)
- experiment: biochemical
- Format: binding
// reported Normalized average relative binding affinity (ARB), HLA B*1503 for each item listed
assay.endpoint: Normalized average relative binding affinity (ARB), HLA B*1503

sequence_text="XXRXXXXXX [3064.0055]" reported=0.25
sequence_text="XXMXXXXXX [3064.0051]" reported=0.33
sequence_text="XXXAXXXXX [3064.0061]" reported=0.41
sequence_text="HXXXXXXXX [3064.0007]" reported=0.20
sequence_text="XKXXXXXXX [3064.0029]" reported=0.29
sequence_text="XQXXXXXXX [3064.0034]" reported=1.0
sequence_text="RXXXXXXXX [3064.0015]" reported=0.56
sequence_text="XSXXXXXXX [3064.0036]" reported=0.13
sequence_text="XRXXXXXXX [3064.0035]" reported=0.059
sequence_text="XEXXXXXXX [3064.0024]" reported=0.11
sequence_text="EXXXXXXXX [3064.0004]" reported=0.090
sequence_text="XXWXXXXXX [3064.0059]" reported=0.35
sequence_text="XFXXXXXXX [3064.0025]" reported=0.0062
sequence_text="XWXXXXXXX [3064.0039]" reported=0.0038
sequence_text="NXXXXXXXX [3064.0012]" reported=0.14
sequence_text="XXKXXXXXX [3064.0049]" reported=0.095
sequence_text="XPXXXXXXX [3064.0033]" reported=0.031
sequence_text="XLXXXXXXX [3064.0030]" reported=0.18
sequence_text="FXXXXXXXX [3064.0005]" reported=1.0
sequence_text="XXEXXXXXX [3064.0044]" reported=0.044
sequence_text="SXXXXXXXX [3064.0016]" reported=0.50
sequence_text="AXXXXXXXX [3064.0001]" reported=0.47
sequence_text="XMXXXXXXX [3064.0031]" reported=0.57
sequence_text="XXGXXXXXX [3064.0046]" reported=0.063
sequence_text="XHXXXXXXX [3064.0027]" reported=0.16
sequence_text="TXXXXXXXX [3064.0017]" reported=0.14
sequence_text="VXXXXXXXX [3064.0018]" reported=0.22
sequence_text="XXSXXXXXX [3064.0056]" reported=0.41
sequence_text="XTXXXXXXX [3064.0037]" reported=0.026
sequence_text="XXNXXXXXX [3064.0052]" reported=0.24
sequence_text="XXVXXXXXX [3064.0058]" reported=1.0
sequence_text="MXXXXXXXX [3064.0011]" reported=0.40
sequence_text="XGXXXXXXX [3064.0026]" reported=0.042

###

- assay.target: H-2 K^k (Mus musculus, UniProt P04223)
- Format: binding
Classification field: enter Met for Normalized average relative binding affinity(ARB) values not below 0.2, Not met for values below it.

sequence_text="XXXXXWXXX [3064.0119]" classification=Met
sequence_text="XXXQXXXXX [3064.0074]" classification=Met
sequence_text="XXXXXXTXX [3064.0137]" classification="Not met"
sequence_text="XXXXXXXHX [3064.0147]" classification="Not met"
sequence_text="XXXYXXXXX [3064.0080]" classification=Met
sequence_text="XXXKXXXXX [3064.0069]" classification=Met
sequence_text="XXXXXPXXX [3064.0113]" classification=Met
sequence_text="XXXSXXXXX [3064.0076]" classification=Met
sequence_text="XXXXXXXYX [3064.0160]" classification=Met
sequence_text="XXXTXXXXX [3064.0077]" classification="Not met"
sequence_text="XXXXXXXMX [3064.0151]" classification=Met
sequence_text="XXXXXXMXX [3064.0131]" classification="Not met"

###

- assay.target: HLA B*0801 (Homo sapiens, UniProt P01889, A93T/A95T/D138N/E176V/E187T/K202T/Q94N/R180D/S35A/V36M/Y33D/Y91F)
- experiment: biochemical
Where a SMILES comes first, the peptide text is derived from it.
hey, just use class 1 if measured IC50 is less than 30 nM, otherwise class 0

compound="CC[C@H](C)[C@H](NC(=O)[C@H](CO)NC(=O)[C@@H](NC(=O)[C@H](CC(C)C)NC(=O)[C@H](CCCCN)NC(=O)[C@H](CCSC)NC(=O)[C@H](CCCCN)NC(=O)[C@@H](NC(=O)[C@@H](N)CO)[C@@H](C)CC)C(C)C)C(=O)O [3102.0585] (H-SIKMKLVSI-OH)" classification="class 1"
compound="CC(C)C[C@H](NC(=O)[C@@H]1CCCN1C(=O)[C@@H](N)CO)C(=O)N[C@@H](CO)C(=O)N[C@@H](CCCCN)C(=O)N[C@@H](CS)C(=O)N[C@H](C(=O)N[C@H](C(=O)N[C@H](C(=O)O)C(C)C)C(C)C)C(C)C [3102.0613] (H-SPLSKCVVV-OH)" classification="class 0"
compound="CC(C)C[C@H](NC(=O)[C@H](CCC(=O)O)NC(=O)[C@@H](NC(=O)[C@H](CC(C)C)NC(=O)[C@H](CCCCN)NC(=O)[C@H](CCCNC(=N)N)NC(=O)[C@H](CCCCN)NC(=O)[C@H](C)NC(=O)[C@@H](N)CCC(=O)O)[C@@H](C)O)C(=O)O [3102.0742] (H-EAKRKLTEL-OH)" classification="class 1"
compound="CC[C@H](C)[C@H](N)C(=O)N[C@@H](CC(C)C)C(=O)N[C@@H](CCCNC(=N)N)C(=O)N[C@@H](CCCCN)C(=O)N[C@H](C(=O)N[C@@H](Cc1ccccc1)C(=O)N[C@@H](Cc1ccc(O)cc1)C(=O)N[C@@H](CO)C(=O)N[C@H](C(=O)O)C(C)C)[C@@H](C)CC [3102.0538] (H-ILRKIFYSV-OH)" classification="class 1"
compound="CC[C@H](C)[C@H](NC(=O)[C@@H]1CCCN1C(=O)[C@@H](NC(=O)[C@H](Cc1c[nH]cn1)NC(=O)[C@H](Cc1ccc(O)cc1)NC(=O)[C@H](CCCCN)NC(=O)[C@H](CCCNC(=N)N)NC(=O)[C@@H](N)Cc1ccc(O)cc1)C(C)C)C(=O)N[C@@H](CCSC)C(=O)O [3102.0573] (H-YRKYHVPIM-OH)" classification="class 0"
compound="CC(C)C[C@H](NC(=O)[C@H](CC(N)=O)NC(=O)[C@@H](NC(=O)[C@H](CC(C)C)NC(=O)[C@H](CCCNC(=N)N)NC(=O)[C@H](CCC(N)=O)NC(=O)[C@H](CCCCN)NC(=O)[C@H](CC(C)C)NC(=O)[C@@H](N)[C@@H](C)O)[C@@H](C)O)C(=O)O [3102.0747] (H-TLKQRLTNL-OH)" classification="class 1"
compound="C[C@H](NC(=O)[C@H](Cc1ccccc1)NC(=O)[C@H](CO)NC(=O)[C@H](CS)NC(=O)[C@H](CCCNC(=N)N)NC(=O)[C@H](Cc1ccc(O)cc1)NC(=O)[C@H](CCCNC(=N)N)NC(=O)[C@H](CCCNC(=N)N)NC(=O)[C@@H](N)CO)C(=O)O [3102.0625] (H-SRRYRCSFA-OH)" classification="class 0"
compound="CC[C@H](C)[C@H](NC(=O)[C@H](CC(C)C)NC(=O)[C@@H](N)CC(N)=O)C(=O)N[C@H](C(=O)N[C@@H](Cc1c[nH]cn1)C(=O)N[C@H](C(=O)N[C@@H](C)C(=O)N[C@@H](C)C(=O)N[C@@H](CC(C)C)C(=O)O)[C@@H](C)O)[C@@H](C)CC [3102.0785] (H-NLIIHTAAL-OH)" classification="class 1"

###

- assay.target: HLA B*5101 (Homo sapiens, UniProt P01889, A329T/A93T/A95T/C349S/D138N/D201E/D98Y/E187L/E204Q/E69T/G107R/I218V/K202T/L105A/L119W/N104I/Q94N/R106L/R155S/R180L/S101N/S121T/S35A/S48A/V306I/V36M/Y195H/Y91F)
- Assay type: binding
Values of Normalized average relative binding affinity(ARB) strictly less than 0.5 map to 1, and values of at least 0.5 map to 0.

sequence_text="XXXXXXMXX [3064.0131]" classification=0
sequence_text="XXXXXPXXX [3064.0113]" classification=1
sequence_text="XXXYXXXXX [3064.0080]" classification=0
sequence_text="XXXXXXAXX [3064.0121]" classification=1
sequence_text="XXXXXXIXX [3064.0128]" classification=0
sequence_text="XXXEXXXXX [3064.0064]" classification=1
sequence_text="XXXXXAXXX [3064.0101]" classification=1
sequence_text="XXXXXXXTX [3064.0157]" classification=0
sequence_text="XXXXXXXFX [3064.0145]" classification=0
sequence_text="XXXXXXXSX [3064.0156]" classification=1
sequence_text="XXXXXXRXX [3064.0135]" classification=0
sequence_text="XXXXXDXXX [3064.0103]" classification=1
sequence_text="XXXHXXXXX [3064.0067]" classification=1
sequence_text="XXXXXXXAX [3064.0141]" classification=0
sequence_text="XXXXXXPXX [3064.0133]" classification=0
sequence_text="XXXXDXXXX [3064.0083]" classification=1

The measurements presented in this section are drawn from paper PMC2248166.
